A collection of compounds and their measured pEC50
Target Desc: GPR35 (Homo sapiens, UniProt Q9HC97)
Sequence (Q9HC97 whole entry): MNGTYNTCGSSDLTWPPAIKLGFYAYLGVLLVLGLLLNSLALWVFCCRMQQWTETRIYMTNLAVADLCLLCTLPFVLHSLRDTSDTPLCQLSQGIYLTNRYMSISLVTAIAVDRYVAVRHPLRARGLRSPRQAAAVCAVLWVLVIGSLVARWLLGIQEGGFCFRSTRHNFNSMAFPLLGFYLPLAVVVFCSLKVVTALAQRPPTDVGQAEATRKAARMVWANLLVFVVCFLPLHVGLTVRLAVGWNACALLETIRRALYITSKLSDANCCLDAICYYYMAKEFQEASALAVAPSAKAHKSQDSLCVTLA
Assay Details: Tango β-arrestin translocation gene reporter assay in U2OS-GPR35-bla cells
Type: cell-based
// pEC50 here means minus log10 of the molar concentration (mol/L)

OCC(O)c1ccc(O)c(O)c1 (stereo not drawn) [DHPG, 3,4-dihydroxyphenylglycol]    3.25
O=C(O)CCc1ccc(O)c(O)c1 [Dihydrocaffeic acid, 3-(3,4-dihydroxyphenyl)propionic acid]    3.73
O=C(O)Cc1ccc(O)c(O)c1 [DOPAC, 3,4-Dihydroxyphenylacetic acid]    3.97
O=C(/C=C/c1ccc(O)c(O)c1)O[C@H](Cc1ccc(O)c(O)c1)C(=O)O [Rosmarinate, rosmarinate]    3.77
O=C(O)c1cc2cc(O)c(O)cc2[nH]1 [DHICA, 5,6-dihydroxyindole-2-carboxylic acid]    4.64

Name the recorded pEC50 for N[C@@H](Cc1ccc(Oc2cc(I)c(O)c(I)c2)c(I)c1)C(=O)O .
3.97

---

A collection of molecules and their measured Efficacy Tango (maximal response)
Target Desc: GPR35 (Homo sapiens)
Assay Details: Tango β-arrestin translocation gene reporter assay in U2OS-GPR35-bla cells
Assay type: cell-based
Particulars: U2OS-GPR35-bla cells; normalized to maximal response of zaprinast within the same plate
# output: bare number, implied unit % Zaprinast

Illustrative cases are given below, each with its answer.
O=C(O)CCc1ccc(O)c(O)c1 [Dihydrocaffeic acid, 3-(3,4-dihydroxyphenyl)propionic acid]    46
OCC(O)c1ccc(O)c(O)c1 (centres unmarked) [DHPG, 3,4-dihydroxyphenylglycol]    18

Name the recorded Efficacy Tango (maximal response) for CCCOc1ccccc1-c1nc2nn[nH]c2c(=O)[nH]1 [Zaprinast, reference compound] .
100

---

A collection of compounds and their measured Efficacy DMR (maximal response)
Target Desc: GPR35 (Homo sapiens, UniProt Q9HC97)
Assay Details: Dynamic mass redistribution
Assay type: cell-based
Particulars: HT-29 cells
# output: bare number, implied unit pm

Illustrative cases are given below, each with its answer.
N[C@@H](Cc1cc(I)c(O)c(I)c1)C(=O)O    254
O=C([O-])c1cc(=O)c2c(OCC(O)COc3cccc4oc(C(=O)[O-])cc(=O)c34)cccc2o1.[Na+].[Na+] [Cromolyn disodium, reference compound]    252
O=C(O)CCc1ccc(O)c(O)c1 [Dihydrocaffeic acid, 3-(3,4-dihydroxyphenyl)propionic acid]    293
O=C(O)c1cc(=O)c2ccccc2[nH]1 [Kynurenic acid, reference compound]    203
N[C@@H](Cc1ccc(O)c([N+](=O)[O-])c1)C(=O)O    330
O=C(O)c1cccnc1Nc1cccc(C(F)(F)F)c1 [Niflumic acid, reference compound]    223
OCC(O)c1ccc(O)c(O)c1 (stereo not drawn) [DHPG, 3,4-dihydroxyphenylglycol]    310
CCCOc1ccccc1-c1nc2nn[nH]c2c(=O)[nH]1 [Zaprinast, reference compound]    250

Name the recorded Efficacy DMR (maximal response) for O=C(O)c1cc2cc(O)c(O)cc2[nH]1 [DHICA, 5,6-dihydroxyindole-2-carboxylic acid] .
310

Name the recorded Efficacy DMR (maximal response) for N[C@@H](Cc1ccc(Oc2cc(I)c(O)c(I)c2)c(I)c1)C(=O)O .
276

Name the recorded Efficacy DMR (maximal response) for O=C(/C=C/c1ccc(O)c(O)c1)O[C@H](Cc1ccc(O)c(O)c1)C(=O)O [Rosmarinate, rosmarinate] .
320

---

Target Desc: GPR35 (Homo sapiens)
Assay Details: Tango β-arrestin translocation gene reporter assay in U2OS-GPR35-bla cells
Type: cell-based
Particulars: read-out: EC50 Tango; U2OS-GPR35-bla cells, β-arrestin translocation
Recorded Endpoint: EC50 (µM)
# output: bare number, implied unit µM

Name the recorded EC50 for O=C([O-])c1cc(=O)c2c(OCC(O)COc3cccc4oc(C(=O)[O-])cc(=O)c34)cccc2o1.[Na+].[Na+] [Cromolyn disodium, reference compound] .
9.67

---

Target Desc: UniProt Q9HC97
Assay Details: Tango β-arrestin translocation gene reporter assay in U2OS-GPR35-bla cells
Format: cell-based
Particulars: U2OS-GPR35-bla cells; normalized to maximal response of zaprinast within the same plate
Recorded Endpoint: Efficacy Tango (maximal response)

Illustrative cases are given below, each with its answer.
O=C(O)c1cc2cc(O)c(O)cc2[nH]1 [DHICA, 5,6-dihydroxyindole-2-carboxylic acid]    75 % Zaprinast
O=C(O)Cc1ccc(O)c(O)c1 [DOPAC, 3,4-Dihydroxyphenylacetic acid]    44 % Zaprinast
O=C([O-])c1cc(=O)c2c(OCC(O)COc3cccc4oc(C(=O)[O-])cc(=O)c34)cccc2o1.[Na+].[Na+] [Cromolyn disodium, reference compound]    97 % Zaprinast
N[C@@H](Cc1ccc(Oc2cc(I)c(O)c(I)c2)c(I)c1)C(=O)O    108 % Zaprinast
O=C(O)c1cccnc1Nc1cccc(C(F)(F)F)c1 [Niflumic acid, reference compound]    39 % Zaprinast
O=C(/C=C/c1ccc(O)c(O)c1)O[C@H](Cc1ccc(O)c(O)c1)C(=O)O [Rosmarinate, rosmarinate]    63 % Zaprinast

Below: the item to evaluate.
Name the recorded Efficacy Tango (maximal response) for O=C(O)c1cc(=O)c2ccccc2[nH]1 [Kynurenic acid, reference compound] .
>60 % Zaprinast

---

Target Desc: GPR35 (Homo sapiens)
Assay Details: Dynamic mass redistribution
Format: cell-based
Recorded Endpoint: log10 of EC50 (log10 of the value in µM)
Please keep in mind that the values are log10 of EC50 expressed in µM.

OCC(O)c1ccc(O)c(O)c1 (centres unmarked) [DHPG, 3,4-dihydroxyphenylglycol]    2.38
O=C(O)CCc1ccc(O)c(O)c1 [Dihydrocaffeic acid, 3-(3,4-dihydroxyphenyl)propionic acid]    2.53
N[C@@H](Cc1cc(I)c(O)c(I)c1)C(=O)O    2.48
N[C@@H](Cc1ccc(Oc2cc(I)c(O)c(I)c2)c(I)c1)C(=O)O    0.77
N[C@@H](Cc1ccc(O)c([N+](=O)[O-])c1)C(=O)O    2.15

Recorded log10 of EC50 for O=C(O)c1cc2cc(O)c(O)cc2[nH]1 [DHICA, 5,6-dihydroxyindole-2-carboxylic acid] with GPR35 (Homo sapiens), please?
1.38

Recorded log10 of EC50 for O=C(/C=C/c1ccc(O)c(O)c1)O[C@H](Cc1ccc(O)c(O)c1)C(=O)O [Rosmarinate, rosmarinate] with GPR35 (Homo sapiens), please?
1.47

---

Target Desc: GPR35 (Homo sapiens, UniProt Q9HC97)
Assay Details: Dynamic mass redistribution
Format: cell-based
Particulars: HT-29 cells, doses up to 1 mM
Recorded Endpoint: DMR signal in DMR agonism profiling (in words)

O=C(O)Cc1ccc(O)c(O)c1 [DOPAC, 3,4-Dihydroxyphenylacetic acid]    active
OCC(O)c1ccc(O)c(O)c1 (stereo not shown) [DHPG, 3,4-dihydroxyphenylglycol]    active
O=C(O)CCc1ccc(O)c(O)c1 [Dihydrocaffeic acid, 3-(3,4-dihydroxyphenyl)propionic acid]    active

---

Target Desc: GPR35 (Homo sapiens, UniProt Q9HC97)
Assay Details: Tango β-arrestin translocation gene reporter assay in U2OS-GPR35-bla cells
Type: cell-based
pEC50: −log10 of the molar value.
A collection of compounds and their measured pEC50

O=C(O)c1cc(=O)c2ccccc2[nH]1 [Kynurenic acid, reference compound]    < 3.30
N[C@@H](Cc1cc(I)c(Oc2cc(I)c(O)c(I)c2)c(I)c1)C(=O)O [L-Thyroxine (T4), L-thyroxine, reference compound]    < 3.30

Below: the item to evaluate.
Name the recorded pEC50 for N[C@@H](Cc1ccc(O)c([N+](=O)[O-])c1)C(=O)O [3-Nitro-L-tyrosine, 3-nitro-L-tyrosine] .
< 3.30

---

Target Desc: GPR35 (Homo sapiens)
Assay Details: Dynamic mass redistribution
Format: cell-based
Particulars: HT-29 cells
Recorded Endpoint: Efficacy DMR (maximal response)

N[C@@H](Cc1cc(I)c(Oc2cc(I)c(O)c(I)c2)c(I)c1)C(=O)O [L-Thyroxine (T4), L-thyroxine, reference compound]    >100 pm
N[C@@H](Cc1ccc(O)c(I)c1)C(=O)O [3-Iodo-L-tyrosine, 3-iodo-L-tyrosine]    >50 pm

Below: the item to evaluate.
Name the recorded Efficacy DMR (maximal response) for O=C(O)Cc1ccc(O)c(O)c1 [DOPAC, 3,4-Dihydroxyphenylacetic acid] .
>200 pm
